assayed system: recombinant human DPP9 (Homo sapiens, UniProt Q86TI2)
Construct: purchased R&D Systems
Sequence (Q86TI2 whole entry): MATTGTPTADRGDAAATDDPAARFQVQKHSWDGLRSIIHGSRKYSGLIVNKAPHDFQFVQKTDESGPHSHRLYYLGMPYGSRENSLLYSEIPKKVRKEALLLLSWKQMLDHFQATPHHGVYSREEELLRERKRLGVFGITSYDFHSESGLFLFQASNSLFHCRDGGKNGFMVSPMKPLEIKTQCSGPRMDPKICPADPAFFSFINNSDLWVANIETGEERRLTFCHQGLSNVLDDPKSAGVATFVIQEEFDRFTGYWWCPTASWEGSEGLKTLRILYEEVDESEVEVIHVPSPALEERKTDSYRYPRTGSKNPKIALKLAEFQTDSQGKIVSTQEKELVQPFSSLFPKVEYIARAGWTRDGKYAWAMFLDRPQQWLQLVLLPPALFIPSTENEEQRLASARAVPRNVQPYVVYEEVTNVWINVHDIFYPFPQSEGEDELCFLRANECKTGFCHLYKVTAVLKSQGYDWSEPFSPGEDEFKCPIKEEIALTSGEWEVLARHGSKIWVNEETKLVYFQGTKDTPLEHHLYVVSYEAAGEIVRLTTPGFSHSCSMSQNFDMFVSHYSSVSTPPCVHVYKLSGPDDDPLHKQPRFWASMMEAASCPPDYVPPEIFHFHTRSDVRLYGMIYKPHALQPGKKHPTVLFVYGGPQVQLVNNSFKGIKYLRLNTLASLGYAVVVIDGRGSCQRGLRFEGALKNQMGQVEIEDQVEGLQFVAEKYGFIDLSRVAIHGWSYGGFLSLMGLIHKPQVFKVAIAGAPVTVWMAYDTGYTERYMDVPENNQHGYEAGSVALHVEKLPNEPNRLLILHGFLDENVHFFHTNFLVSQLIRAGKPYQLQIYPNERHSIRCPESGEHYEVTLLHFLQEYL
protocol text: DPP9 inhibition, fluorogenic substrate H-Gly-Pro-AMC
Format: biochemical
particulars: recombinant human DPP9
pIC50: −log10 of the molar value.
Tick yes (1) if pIC50 is 5 or greater. Tick no (0) if pIC50 is less than 5.

{"columns": ["molecule", "assayed system", "assigned category"],
 "data": [
  ["N#C[C@@H]1CCCN1C(=O)CN1CC[C@@H](Nc2cccc3ncccc23)C1 [Example 161]", "recombinant human DPP9 (Homo sapiens, UniProt Q86TI2)", "no (0)"],
  ["Cc1ccc2nccc(OC3CCN(CC(=O)N4C[C@@H](F)C[C@H]4C#N)CC3)c2c1 [Example 410]", "recombinant human DPP9 (Homo sapiens, UniProt Q86TI2)", "no (0)"],
  ["N#C[C@@H]1CCCN1C(=O)CN1CCC(Nc2ccc(C(=O)Nc3ccncc3)c3ncccc23)CC1 [Example 401]", "recombinant human DPP9 (Homo sapiens, UniProt Q86TI2)", "yes (1)"],
  ["Cc1cc(N[C@@H]2CCN(CC(=O)N3C[C@@H](F)C[C@H]3C#N)C2)cc2cccnc12 [Example 213]", "recombinant human DPP9 (Homo sapiens, UniProt Q86TI2)", "yes (1)"],
  ["CN(c1cncc2ccoc12)C1CCN(CC(=O)N2C[C@@H](F)C[C@H]2C#N)CC1 [Example 350]", "recombinant human DPP9 (Homo sapiens, UniProt Q86TI2)", "no (0)"],
  ["CN(c1cccc2ncc(F)cc12)[C@H]1CCN(CC(=O)N2C[C@@H](F)C[C@H]2C#N)C1 [Example 156]", "recombinant human DPP9 (Homo sapiens, UniProt Q86TI2)", "yes (1)"],
  ["N#Cc1cnc2cccc(N[C@H]3CCN(CC(=O)N4C[C@@H](F)C[C@H]4C#N)C3)c2c1 [Example 253]", "recombinant human DPP9 (Homo sapiens, UniProt Q86TI2)", "yes (1)"],
  ["Cc1cc(OC2CCN(CC(=O)N3C[C@@H](F)C[C@H]3C#N)CC2)c2ccccc2n1 [Example 436]", "recombinant human DPP9 (Homo sapiens, UniProt Q86TI2)", "no (0)"]
]}

* * *

assayed system: recombinant human DPP8 (Homo sapiens, UniProt Q6V1X1)
Construct: purchased PBS Bioscience
Sequence (Q6V1X1 whole entry): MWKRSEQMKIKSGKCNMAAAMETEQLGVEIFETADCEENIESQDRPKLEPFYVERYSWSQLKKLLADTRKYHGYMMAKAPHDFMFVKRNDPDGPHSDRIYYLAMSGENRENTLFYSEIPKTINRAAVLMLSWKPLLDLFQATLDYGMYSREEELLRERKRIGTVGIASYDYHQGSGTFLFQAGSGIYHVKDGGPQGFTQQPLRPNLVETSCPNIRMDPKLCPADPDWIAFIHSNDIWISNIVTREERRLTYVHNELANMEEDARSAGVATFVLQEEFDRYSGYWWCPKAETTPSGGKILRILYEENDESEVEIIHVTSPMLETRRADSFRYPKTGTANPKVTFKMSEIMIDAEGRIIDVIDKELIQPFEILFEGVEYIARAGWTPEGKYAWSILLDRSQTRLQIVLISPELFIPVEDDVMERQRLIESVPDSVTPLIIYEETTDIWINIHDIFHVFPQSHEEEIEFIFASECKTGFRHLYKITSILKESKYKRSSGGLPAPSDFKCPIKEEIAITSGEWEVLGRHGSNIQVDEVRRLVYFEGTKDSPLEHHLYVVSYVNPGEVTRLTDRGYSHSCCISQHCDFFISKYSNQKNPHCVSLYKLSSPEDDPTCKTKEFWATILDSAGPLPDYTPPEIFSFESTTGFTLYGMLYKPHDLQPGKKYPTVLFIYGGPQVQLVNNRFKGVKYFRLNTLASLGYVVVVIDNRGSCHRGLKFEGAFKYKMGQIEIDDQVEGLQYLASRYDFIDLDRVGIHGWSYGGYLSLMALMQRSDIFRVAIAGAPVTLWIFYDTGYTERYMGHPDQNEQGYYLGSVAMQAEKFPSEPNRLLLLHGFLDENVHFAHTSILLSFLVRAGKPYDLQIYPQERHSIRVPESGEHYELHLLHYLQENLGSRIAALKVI
protocol text: DPP8 inhibition, fluorogenic substrate Z-Ala-Pro-AMC
Type: biochemical
particulars: recombinant human DPP8
// values below are reported IC50
measurement type: IC50 (µM)

{"columns": ["smiles notation", "assayed system", "measurement type", "inequality operator", "result value"],
 "data": [
  ["N#C[C@@H]1C[C@H](F)CN1C(=O)CN1CC[C@H](Nc2ccc(OC(F)(F)F)c3ncccc23)C1", "recombinant human DPP8 (Homo sapiens, UniProt Q6V1X1)", "IC50", ">", 10],
  ["N#C[C@@H]1C[C@H](F)CN1C(=O)CN1CCC(Oc2cccc3cnccc23)CC1", "recombinant human DPP8 (Homo sapiens, UniProt Q6V1X1)", "IC50", "=", 1.58],
  ["N#C[C@@H]1C[C@H](F)CN1C(=O)CN1CC[C@H](Nc2cnc3ccccc3c2)C1", "recombinant human DPP8 (Homo sapiens, UniProt Q6V1X1)", "IC50", ">", 3],
  ["N#Cc1ccc2c(N[C@H]3CCN(CC(=O)N4CCC[C@H]4C#N)C3)cccc2n1", "recombinant human DPP8 (Homo sapiens, UniProt Q6V1X1)", "IC50", "=", 12.6],
  ["CN(c1cncc2ccoc12)C1CCN(CC(=O)N2C[C@@H](F)C[C@H]2C#N)CC1", "recombinant human DPP8 (Homo sapiens, UniProt Q6V1X1)", "IC50", "=", 17.5],
  ["COc1cnc2cccc(NC3CCN(CC(=O)N4C[C@@H](F)C[C@H]4C#N)CC3)c2c1", "recombinant human DPP8 (Homo sapiens, UniProt Q6V1X1)", "IC50", "=", 2.44],
  ["N#Cc1cnc2cccc(N[C@H]3CCN(CC(=O)N4CCC[C@H]4C#N)C3)c2c1", "recombinant human DPP8 (Homo sapiens, UniProt Q6V1X1)", "IC50", ">", 100],
  ["N#C[C@@H]1C[C@H](F)CN1C(=O)CN1CCC(Nc2ccnc3ccc(F)cc23)CC1", "recombinant human DPP8 (Homo sapiens, UniProt Q6V1X1)", "IC50", "=", 7.88],
  ["N#C[C@@H]1C[C@H](F)CN1C(=O)CN1CCC(Oc2cc(C(F)(F)F)nc3ccccc23)CC1", "recombinant human DPP8 (Homo sapiens, UniProt Q6V1X1)", "IC50", "=", 12],
  ["N#C[C@@H]1CCCN1C(=O)CN1CC[C@@H](Nc2ccc3ncccc3c2)C1", "recombinant human DPP8 (Homo sapiens, UniProt Q6V1X1)", "IC50", "≥", 100],
  ["N#C[C@@H]1CCCN1C(=O)CN1CC[C@@H](Nc2ccc(F)c3ncccc23)C1", "recombinant human DPP8 (Homo sapiens, UniProt Q6V1X1)", "IC50", "=", 8.23],
  ["COc1cc2nccc(O[C@H]3CCN(CC(=O)N4C[C@@H](F)C[C@H]4C#N)C3)c2cc1OC", "recombinant human DPP8 (Homo sapiens, UniProt Q6V1X1)", "IC50", "=", 17.8],
  ["COc1cnc2cccc(N[C@H]3CCN(CC(=O)N4C[C@@H](F)C[C@H]4C#N)C3)c2c1", "recombinant human DPP8 (Homo sapiens, UniProt Q6V1X1)", "IC50", "=", 12.2],
  ["COc1cnc2cccc(N[C@H]3CCN(CC(=O)N4CCC[C@H]4C#N)C3)c2c1", "recombinant human DPP8 (Homo sapiens, UniProt Q6V1X1)", "IC50", "=", 28.1],
  ["N#Cc1cnc2cccc(N[C@H]3CCN(CC(=O)N4C[C@@H](F)C[C@H]4C#N)C3)c2c1", "recombinant human DPP8 (Homo sapiens, UniProt Q6V1X1)", "IC50", "=", 2.67],
  ["N#C[C@@H]1C[C@H](F)CN1C(=O)CN1CC[C@@H](Nc2cccc3ncccc23)C1", "recombinant human DPP8 (Homo sapiens, UniProt Q6V1X1)", "IC50", "=", 6.16],
  ["Cc1cc(OC2CCN(CC(=O)N3C[C@@H](F)C[C@H]3C#N)CC2)c2cc(F)ccc2n1", "recombinant human DPP8 (Homo sapiens, UniProt Q6V1X1)", "IC50", "=", 4.15],
  ["N#C[C@@H]1CCCN1C(=O)CN1CC[C@H](Nc2ccc(F)c3ncccc23)C1", "recombinant human DPP8 (Homo sapiens, UniProt Q6V1X1)", "IC50", "=", 32.7],
  ["CN(c1ccc2cccnc2c1)C1CCN(CC(=O)N2CCC[C@H]2C#N)CC1", "recombinant human DPP8 (Homo sapiens, UniProt Q6V1X1)", "IC50", ">", 100],
  ["N#C[C@@H]1C[C@H](F)CN1C(=O)CN1CCC(Oc2cc(C(F)(F)F)nc3ccc(F)cc23)CC1", "recombinant human DPP8 (Homo sapiens, UniProt Q6V1X1)", "IC50", "=", 18.2],
  ["CN(c1cccc2cnccc12)C1CCN(CC(=O)N2CCC[C@H]2C#N)CC1", "recombinant human DPP8 (Homo sapiens, UniProt Q6V1X1)", "IC50", ">", 100]
]}

* * *

assayed system: Recombinant human FAP (Homo sapiens)
Construct: purchased R&D systems
Sequence (Q12884 whole entry): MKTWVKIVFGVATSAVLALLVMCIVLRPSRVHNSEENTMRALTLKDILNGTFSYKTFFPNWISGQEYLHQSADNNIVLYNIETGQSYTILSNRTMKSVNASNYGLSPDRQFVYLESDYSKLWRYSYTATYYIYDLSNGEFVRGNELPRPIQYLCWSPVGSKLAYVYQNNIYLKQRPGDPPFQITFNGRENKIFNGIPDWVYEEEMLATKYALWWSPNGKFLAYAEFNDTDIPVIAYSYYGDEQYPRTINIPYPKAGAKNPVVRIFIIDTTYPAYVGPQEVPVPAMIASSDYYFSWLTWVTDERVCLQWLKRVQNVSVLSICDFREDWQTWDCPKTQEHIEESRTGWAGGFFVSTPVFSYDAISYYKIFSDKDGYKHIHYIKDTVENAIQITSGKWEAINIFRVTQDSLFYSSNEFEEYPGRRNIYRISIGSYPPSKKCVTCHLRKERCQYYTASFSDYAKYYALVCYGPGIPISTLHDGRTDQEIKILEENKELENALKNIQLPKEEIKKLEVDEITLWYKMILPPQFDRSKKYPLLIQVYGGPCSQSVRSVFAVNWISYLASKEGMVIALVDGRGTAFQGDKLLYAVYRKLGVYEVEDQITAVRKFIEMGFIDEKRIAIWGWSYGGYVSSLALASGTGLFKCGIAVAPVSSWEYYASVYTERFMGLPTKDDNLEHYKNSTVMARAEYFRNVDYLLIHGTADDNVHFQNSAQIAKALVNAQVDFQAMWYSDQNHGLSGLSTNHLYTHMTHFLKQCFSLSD
protocol text: FAP inhibition, fluorogenic substrate Z-Gly-Pro-AMC
Type: biochemical
particulars: 25° C., Z-Gly-Pro-AMC substrate
Description: The compounds according to the present technology were evaluated in terms of the inhibitory effect on the activity of dipeptidyl peptidases including FAP by using a substrate producing fluorescent substances upon enzymatic decomposition. […] Fluorescence intensity was measured using a microplate reader (Flexstation3, Molecular Devices) under the wavelength condition exciting at 380 nm and reading the emission at 460 nm. […]
pIC50: −log10 of the molar value.

{"columns": ["smiles notation", "pIC50"],
 "data": [
  ["N#C[C@@H]1CCCN1C(=O)CN1CC[C@H](NC(=O)c2coc3cccc(O)c23)C1", 8.65],
  ["N#C[C@@H]1C[C@@H]2C[C@@H]2N1C(=O)CN1CCC(Nc2ccnc3ccccc23)CC1", 7.72],
  ["N#C[C@@H]1CC(F)(F)CN1C(=O)CN1CC[C@H](Oc2cccc3cnccc23)C1", 8.73],
  ["N#C[C@@H]1CC(F)(F)CN1C(=O)CN1CC[C@H](Nc2cccc3sccc23)C1", 8.96],
  ["N#C[C@@H]1C[C@H](F)CN1C(=O)CN1CC[C@H](NC(=O)c2coc3cc(F)ccc23)C1", 8.21],
  ["N#C[C@@H]1CCCN1C(=O)CN1CC[C@H](NC(=O)c2coc3ccccc23)C1", 7.93],
  ["COc1ccc2ncc(N(C)[C@H]3CCN(CC(=O)N4CCC[C@H]4C#N)C3)cc2c1", 8.60],
  ["N#C[C@@H]1CC(F)(F)CN1C(=O)CN1CC[C@H](Oc2cccc3[nH]c(=O)ccc23)C1", 8.67]
]}
